Source listed as patent US10040791B2.

Test system: HT-1080 cells expressing IDH1R132C
Assay: 2-HG production inhibitory activity using HT1080 cell
Format: cell-based, human
Settings: Homo sapiens, HT-1080; 2-HG production, HT1080 cells; read-out: Test Example 3 IC50
Procedure: Then, 100 μL of growth medium B was added to each well, further 25 μL of a solution of each compound diluted to a predetermined concentration with growth medium B was added to each well, and the cells were incubated at 37° C. for 2 days under 5% CO2. […] Then, 150 μL of ultrapure water was further added to each well, and the mixture was stirred by pipetting and stored at −20° C. The preserved solutions were thawed at room temperature.
pIC50: −log10 of the molar value.
quantity kind: pIC50

Worked examples follow.
• Cc1cn(C(=O)c2c(-c3c(Cl)cc(Cl)cc3Cl)noc2C2(C#N)CCC2)c2cccc(/C=C/C(=O)O)c12 = 7.38
• Cc1cn(C(=O)c2c(-c3c(Cl)cc(Cl)cc3Cl)noc2C2(N)CCC2)c2cccc(/C=C/C(=O)O)c12 = 7.44
• CC(C)(C)c1onc(-c2c(Cl)cc(Cl)cc2Cl)c1C(=O)n1cc(C(F)F)c2c(/C=C/C(=O)O)cccc21 = 7.23

[a] C=CC(=O)N1CCC(c2onc(-c3c(Cl)cc(Cl)cc3Cl)c2C(=O)n2ccc3c(/C=C(\C)C(=O)O)cccc32)CC1
[b] C=CC(=O)N1CCC(c2onc(-c3cc(F)c(Cl)cc3Cl)c2C(=O)n2cc(C)c3c(/C=C/C(=O)O)cccc32)CC1
Smaller pIC50 value? Options are a and b Refer to your chosen entry by its label in the reply. a
(a: 7.38, b: 8.10)

* * *

system: HT-1080 cells expressing IDH1R132C; experiment: 2-HG production inhibitory activity using HT1080 cell; type: cell-based, human; details: Homo sapiens, HT-1080; 2-HG production, HT1080 cells; read-out: Test Example 3 IC50
pIC50: −log10 of the molar value.
quantity kind: pIC50

[1] COC1(c2onc(-c3c(Cl)cc(Cl)cc3Cl)c2C(=O)n2cc(C)c3c(/C=C/C(=O)O)cccc32)COC1
[2] CC1(c2onc(-c3c(Cl)cc(Cl)cc3Cl)c2C(=O)n2ccc3c(/C=C/C(=O)O)ccnc32)COC1
[3] Cc1cn(C(=O)c2c(-c3c(Cl)cc(C4CC4)cc3Cl)noc2C(C)(C)F)c2cccc(/C=C/C(=O)O)c12
// rank above by pIC50: first = highest number Output spec: labels arranged per the requested ranking. 1, 3, 2
(1: 7.57, 3: 7.15, 2: 5.90)

[a] C=CC(=O)N1CCC(c2onc(-c3c(C)cc(C)cc3C)c2C(=O)n2ccc3c(/C=C/C(=O)O)cccc32)CC1
[b] C=CC(=O)N1CCC(c2onc(-c3c(Cl)cc(Cl)cc3Cl)c2C(=O)n2cc(C)c3c(/C=C/C(=O)O)cccc32)CC1
Of a and b , which one carries the higher reported pIC50? Which one? Tell me its label. b

[1] CNC(C)(C)c1onc(-c2c(Cl)cc(Cl)cc2Cl)c1C(=O)n1cc(C)c2c(/C=C/C(=O)O)cccc21
[2] C=CC(=O)N1CC2(CC2)N(c2onc(-c3c(F)cccc3Cl)c2C(=O)n2ccc3c(/C=C/C(=O)O)cccc32)C[C@H]1C
[3] CNC1(c2onc(-c3c(Cl)cc(Cl)cc3Cl)c2C(=O)n2cc(C)c3c(/C=C/C(=O)O)cccc32)CCC1
[4] Cn1cc(C(=O)c2c(-c3c(Cl)cc(Cl)cc3Cl)noc2C(C)(C)C)c2cccc(/C=C/C(=O)O)c21
Order the entries by their reported pIC50, beginning at the minimum. # format: label list in the order the request specifies 4, 2, 3, 1

[A] CC(C)(C)c1onc(-c2c(Cl)cc(Cl)cc2Cl)c1C(=O)n1ccc2c(/C=C/C(=O)O)cccc21
[B] C=CC(=O)N1CCC(O)(c2onc(-c3c(Cl)cc(Cl)cc3Cl)c2C(=O)n2cc(C)c3c(/C=C/C(=O)O)cccc32)CC1
[C] C/C=C/C(=O)N1CCC(c2onc(-c3c(Cl)cc(Cl)cc3Cl)c2C(=O)n2cc(C)c3c(/C=C/C(=O)O)cccc32)CC1
[D] Cc1cn(C(=O)c2c(-c3c(Cl)cc(Cl)cc3Cl)noc2C(C)(C)F)c2c(F)ccc(/C=C/C(=O)O)c12
[E] C=CC(=O)N1CCC(c2onc(-c3c(Cl)cccc3Cl)c2C(=O)n2ccc3c(/C=C/C(=O)O)cccc32)CC1
Place the items in sequence of falling pIC50. Thanks in advance for listing the labels in the requested order. B, C, E, A, D
(B: 7.89, C: 7.52, E: 7.30, A: 6.96, D: 6.76)

[a] COC1(c2onc(-c3c(Cl)cc(Cl)cc3Cl)c2C(=O)n2ccc3c(/C=C/C(=O)O)cccc32)CCC1
[b] C=CC(=O)N1CCC(c2onc(-c3c(Cl)cc(Cl)cc3Cl)c2C(=O)n2ccc3c(C4CC4C(=O)O)cccc32)CC1 (stereo not drawn)
Looking at a and b , which one comes out lower in pIC50 terms? Kindly state the label of the option you pick. a
(a: 6.93, b: 7.49)

[a] C=CC(=O)N1CCN(c2onc(-c3c(Cl)cccc3Cl)c2C(=O)n2ccc3c(/C=C/C(=O)O)cccc32)CC1
[b] COC1(c2onc(-c3c(Cl)cc(Cl)cc3Cl)c2C(=O)n2cc(C)c3c(/C=C/C(=O)O)cccc32)CCC1
Hi team, can someone confirm which has the larger pIC50: a or b ? Thanks. Record your answer as the label of the chosen record. b
(b: 7.46, a: 6.87)

[P] C=CC(=O)N1C[C@@H](C)N(c2onc(-c3c(Cl)cccc3Cl)c2C(=O)n2ccc3c(/C=C/C(=O)O)cccc32)[C@@H](C)C1
[Q] Cn1cc(C(=O)c2c(-c3c(Cl)cc(Cl)cc3Cl)noc2C(C)(C)C)c2ccc3ccc(C(=O)O)cc3c21
// compare: P vs Q , metric pIC50, want the smaller Pick one; state its label. Q

[P] C=CC(=O)N1CC(c2onc(-c3c(Cl)cc(Cl)cc3Cl)c2C(=O)n2ccc3c(/C=C/C(=O)O)cccc32)C1
[Q] C[C@@H]1CCC[C@H](C)N1c1onc(-c2c(Cl)cccc2Cl)c1C(=O)n1ccc2c(/C=C/C(=O)O)cccc21
[R] Cn1cc(C(=O)c2c(-c3c(Cl)cc(Cl)cc3Cl)noc2C2(C)CC2)c2cccc(/C=C/C(=O)O)c21
Order these by pIC50, descending, and give the full ranking. Output spec: a listing of the labels in the requested order. P, R, Q

* * *

target: IDH1R132C (Homo sapiens (Human), UniProt O75874, R132C); experiment: Inhibitory activity against IDH1R132C enzyme (NADPH detection, WST-8); conditions: 10 nM, residual NADPH detected with WST-8, read-out: Test Example 1 IDH1 R132C IC50
Sequence (O75874 whole entry R132C): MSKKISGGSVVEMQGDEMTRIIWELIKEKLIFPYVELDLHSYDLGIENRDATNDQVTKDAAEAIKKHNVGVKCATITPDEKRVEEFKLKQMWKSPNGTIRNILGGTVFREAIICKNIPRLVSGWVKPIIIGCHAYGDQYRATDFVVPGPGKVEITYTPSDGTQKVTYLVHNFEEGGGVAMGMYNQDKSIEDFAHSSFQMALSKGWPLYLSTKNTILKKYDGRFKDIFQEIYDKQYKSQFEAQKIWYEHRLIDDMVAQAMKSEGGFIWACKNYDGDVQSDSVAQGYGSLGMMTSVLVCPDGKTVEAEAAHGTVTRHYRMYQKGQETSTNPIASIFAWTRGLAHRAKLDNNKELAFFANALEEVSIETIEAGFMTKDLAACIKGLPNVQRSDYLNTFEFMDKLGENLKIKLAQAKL
pIC50: −log10 of the molar value.
quantity kind: pIC50

- C=CC(=O)N1C[C@@H](C)N(c2onc(-c3c(Cl)cc(Cl)cc3Cl)c2C(=O)n2ccc3c(/C=C/C(=O)O)cccc32)[C@@H](C)C1: 6.77
- COC1(c2onc(-c3c(F)cc(Cl)cc3Cl)c2C(=O)n2cc(C)c3c(/C=C/C(=O)O)cccc32)CCC1: 6.96
- Cc1cn(C(=O)c2c(-c3c(Cl)cc(F)cc3Cl)noc2C(C)(C)F)c2cccc(/C=C/C(=O)O)c12: 7.10
- Cc1cn(C(=O)c2c(-c3c(Cl)cc(Br)cc3Cl)noc2C(C)(C)F)c2cccc(/C=C/C(=O)O)c12: 6.90
- C=CC(=O)N(C)C1(c2onc(-c3c(Cl)cc(Cl)cc3Cl)c2C(=O)n2cc(C)c3c(/C=C/C(=O)O)cccc32)CCC1: 6.84

[1] O=C(O)/C=C/c1cccc2c1ccn2C(=O)c1c(-c2c(Cl)cccc2Cl)noc1N1CCOCC1
[2] C=CC(=O)N1CCCC(c2onc(-c3c(Cl)cc(Cl)cc3Cl)c2C(=O)n2ccc3c(/C=C/C(=O)O)cccc32)C1 (stereo not shown)
Quick check, higher pIC50 between 1 and 2 ? Selection: enter the item's label. 1

* * *

molecular target: IDH1R132C (Homo sapiens (Human), UniProt O75874, R132C); assay: Inhibitory activity against IDH1R132C enzyme (NADPH detection, WST-8); conditions: 10 nM, residual NADPH detected with WST-8, read-out: Test Example 1 IDH1 R132C IC50
quantity kind: IC50 (nM)

- Cc1cn(C(=O)c2c(-c3c(Cl)cc(Cl)cc3Cl)noc2C2(N(C)C)CCC2)c2cccc(/C=C/C(=O)O)c12: 163
- C=CC(=O)N1CCC(c2onc(-c3c(Cl)cccc3Cl)c2C(=O)n2ccc3c(/C=C/C(=O)O)cccc32)CC1: 117
- Cc1cn(C(=O)c2c(-c3c(Cl)cc(Cl)cc3Cl)noc2C(C)(C)F)c2cccc(/C=C/C(=O)O)c12: 95
- CC(C)(C)c1onc(-c2c(Cl)cc(Cl)cc2Cl)c1C(=O)n1cc(C(F)F)c2c(/C=C/C(=O)O)cccc21: 201
- C=CC(=O)N1CCC(c2onc(-c3c(Cl)cc(Cl)cc3Cl)c2C(=O)n2cc(C)c3c(CCC(=O)O)cccc32)CC1: 301

[A] CC(C)(F)c1onc(-c2c(Cl)cc(Cl)cc2Cl)c1C(=O)n1ccc2c3c(ccc21)CCC(C(=O)O)C3 (stereo not shown)
[B] Cc1cc(Cl)c(-c2noc(C(C)(C)C)c2C(=O)n2ccc3c(/C=C/C(=O)O)cccc32)c(Cl)c1
Field: entry with larger IC50 (options A / B ). Identify your selection by its label. B
(B: 234 nM, A: 162 nM)
